Tested on: Aβ levels in HEK293APP stable cells
MEASUREMENT PROTOCOL: Aβ ELISA of culture medium, HEK293APP stable cells transfected with TRPC plasmids
Type: cell-based
ASSAY SETUP: Table 4; TRPC6 fragments, HEK293APP stable cells, 48 h; empty vector = 1
OUTCOME MEASURE: Aβ40

// query Please report the measured Aβ40 for 725/930aa: TRPC6 fragment 725~930aa expressed from plasmid (protein, UniProt Q9Y210 725-930, looked up, fragment) AMINSSFQEIEDDADVEWKFARAKLWFSYFEEGRTLPVPFNLVPSPKSLFYLLLKLKKWISELFQGHKKGFQEDAEMNKINEEKKLGILGSHEDLSKLSLDKKQVGHNKQPSIRSSEDFHLNSFNNPPRQYQKIMKRLIKRYVLQAQIDKESDEVNEGELKEIKQDISSLRYELLEEKSQNTEDLAELIRELGEKLSMEPNQEETN
// result 1.007 ± 0.07289

// query Please report the measured Aβ40 for 508/633aa: TRPC6 fragment 508~633aa expressed from plasmid (protein, UniProt Q9Y210 508-633, looked up, fragment) AECKEIWTQGPKEYLFELWNMLDFGMLAIFAASFIARFMAFWHASKAQSIIDANDTLKDLTKVTLGDNVKYYNLARIKWDPSDPQIISEGLYAIAVVLSFSRIAYILPANESFGPLQISLGRTVKD
// result 1.016 ± 0.04396

// query Please report the measured Aβ40 for 437/633aa: TRPC6 fragment 437~633aa expressed from plasmid (protein, UniProt Q9Y210 437-633, looked up, fragment) RGPFMKFVAHAASFTIFLGLLVMNAADRFEGTKLLPNETSTDNAKQLFRMKTSCFSWMEMLIISWVIGMIWAECKEIWTQGPKEYLFELWNMLDFGMLAIFAASFIARFMAFWHASKAQSIIDANDTLKDLTKVTLGDNVKYYNLARIKWDPSDPQIISEGLYAIAVVLSFSRIAYILPANESFGPLQISLGRTVKD
// result 0.8146 ± 0.07986

// query Please report the measured Aβ40 for 389/510aa: TRPC6 fragment 389~510aa expressed from plasmid (protein, UniProt Q9Y210 389-510, looked up, fragment) SIWYENLSGLRQQTMAVKFLVVLAVAIGLPFLALIYWFAPCSKMGKIMRGPFMKFVAHAASFTIFLGLLVMNAADRFEGTKLLPNETSTDNAKQLFRMKTSCFSWMEMLIISWVIGMIWAEC
// result 0.5959 ± 0.08036

// provenance: patent US9790551B2
